The entries below come with measured 1 linker (protein+linker) values attached.
Assay: Stability of linkers L1-L4 conjugated to FGF21 (LC-MS)
Type: physicochemical
Conditions: +4° C., 24 hrs
A complete answer gives the number and then names the unit.

L3-FGF21ΔH-A129C: Linker-3 conjugated to FGF21ΔH-A129C protein (Table 4; Table 5 row L3) (conjugate, UniProt Q9NSA1 29-209, looked up, variant H1* A129C, Linker-3 attached) Fibroblast growth factor 21: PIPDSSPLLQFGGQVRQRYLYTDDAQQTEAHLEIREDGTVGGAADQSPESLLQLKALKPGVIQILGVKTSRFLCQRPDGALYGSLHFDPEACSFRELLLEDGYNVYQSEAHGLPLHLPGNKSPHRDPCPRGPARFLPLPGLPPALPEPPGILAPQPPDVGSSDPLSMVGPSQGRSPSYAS; 47%
L4-FGF21ΔH-A129C: Linker-4 conjugated to FGF21ΔH-A129C protein (Table 4; Table 5 row L4) (conjugate, UniProt Q9NSA1 29-209, looked up, variant H1* A129C, Linker-4 attached) Fibroblast growth factor 21: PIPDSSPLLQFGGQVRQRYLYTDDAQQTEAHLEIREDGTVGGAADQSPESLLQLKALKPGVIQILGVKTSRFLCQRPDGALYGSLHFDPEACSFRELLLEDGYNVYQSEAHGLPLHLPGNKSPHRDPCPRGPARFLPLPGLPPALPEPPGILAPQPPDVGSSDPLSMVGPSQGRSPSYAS; 46%
L2-FGF21ΔH-A129C: Linker-2 conjugated to FGF21ΔH-A129C protein (Table 4; Table 5 row L2) (conjugate, UniProt Q9NSA1 29-209, looked up, variant H1* A129C, Linker-2 attached) Fibroblast growth factor 21: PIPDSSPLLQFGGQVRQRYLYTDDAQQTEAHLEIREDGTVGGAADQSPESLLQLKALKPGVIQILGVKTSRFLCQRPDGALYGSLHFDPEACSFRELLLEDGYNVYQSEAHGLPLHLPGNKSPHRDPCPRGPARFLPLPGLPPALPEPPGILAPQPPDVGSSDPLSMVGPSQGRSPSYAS; 43%

Request: Fill blank: measured 1 linker (protein+linker) of the molecule L1-FGF21ΔH-A129C: Linker-1 conjugated to FGF21ΔH-A129C protein (Table 4; Table 5 row L1) (conjugate, UniProt Q9NSA1 29-209, looked up, variant H1* A129C, Linker-1 attached) Fibroblast growth factor 21: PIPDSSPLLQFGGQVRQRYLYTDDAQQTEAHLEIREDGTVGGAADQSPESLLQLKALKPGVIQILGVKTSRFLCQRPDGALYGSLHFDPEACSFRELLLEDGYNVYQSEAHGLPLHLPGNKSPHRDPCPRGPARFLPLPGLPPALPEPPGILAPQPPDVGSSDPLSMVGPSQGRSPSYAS is ____.
Response: 41%
